Reference source: the supplement of paper PMC7125110

Listed variants paired with reported self-cleavage kobs at 40 uM GlcN6P
B1: glmS ribozyme (parent)
chain: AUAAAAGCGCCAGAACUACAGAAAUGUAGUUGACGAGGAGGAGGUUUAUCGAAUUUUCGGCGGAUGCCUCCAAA

variants of: B1; experiment: self-cleavage kobs at 40 uM GlcN6P; higher = faster cleavage; RNA array; conditions: with glucosamine-6-phosphate
Fewer inactive variants are shown than the library holds.

Use these answered entries as a reference point.
>>> df
      variant_notation    data_value
0       C10G C11G G63C   < 1e-05 s⁻¹
1            G40U G44U   < 1e-05 s⁻¹
2  G41U U55G C68U C70U   < 1e-05 s⁻¹
3       G35A A39G U57C   < 1e-05 s⁻¹
4            C16A A53G  7.66e-05 s⁻¹
5            U30C G60U   < 1e-05 s⁻¹
6  C10U G35U A39U A48G   < 1e-05 s⁻¹
7       A36C C50G C70U  0.000435 s⁻¹
8            G66A C67U  0.000173 s⁻¹
9  U45G G62A C70G C71G   < 1e-05 s⁻¹

If you can, please state the reported self-cleavage kobs at 40 uM GlcN6P value of G43U G66C .
< 1e-05 s⁻¹

If you can, please state the reported self-cleavage kobs at 40 uM GlcN6P value of A6C G9U U47G .
< 1e-05 s⁻¹

If you can, please state the reported self-cleavage kobs at 40 uM GlcN6P value of A12G A36G G38C .
< 1e-05 s⁻¹
